Value source: patent EP4725957A1

system: Klebsiella pneumoniae ATCC BAA-1705 (KPC); type: cell-based; details: Klebsiella pneumoniae ATCC BAA-1705 (KPC)
Bridge positions count the residues as written; N and C are the ends. Square brackets hold non-standard residues; d marks the D form. Peptide text beside a SMILES is read from it. * marks the point of attachment. Heptanoyl(6-Me) = CC(C)CCCCC(=O)*; dDap = NC[C@@H](N)C(=O)O; Dab = NCC[C@H](N)C(=O)O; Dap = NC[C@H](N)C(=O)O
value.kind: MIC

CC(C)CCCCC(=O)N[C@@H](CCN)C(=O)N[C@H](C(=O)N[C@@H](CN)C(=O)N[C@H]1CCNC(=O)[C@H]([C@@H](C)O)NC(=O)[C@H](CCN)NC(=O)[C@H](CCN)NC(=O)[C@H]([C@@H](C)O)NC(=O)[C@@H](Cc2ccccc2)NC(=O)[C@H](CCN)NC1=O)[C@@H](C)O [Compound 7] ({Heptanoyl(6-Me)}-[Dab]T[Dap][Dab][Dab][dF]T[Dab][Dab]T; lactam 4-C)	≤0.03 µg/mL
CC(C)CCCCC(=O)N[C@@H](CCN)C(=O)N[C@H](C(=O)N[C@H](CN)C(=O)N[C@H]1CCNC(=O)[C@H]([C@@H](C)O)NC(=O)[C@H](CCN)NC(=O)[C@H](CCN)NC(=O)[C@H]([C@@H](C)O)NC(=O)[C@H](Cc2ccccc2)NC(=O)[C@H](CCN)NC1=O)[C@@H](C)O [Compound 102] ({Heptanoyl(6-Me)}-[Dab]T[dDap][Dab][Dab]FT[Dab][Dab]T; lactam 4-C)	>64 µg/mL
CC(C)CCCCC(=O)N[C@@H](CCN)C(=O)N[C@H](C(=O)N[C@H](CN)C(=O)N[C@H]1CCNC(=O)[C@H]([C@@H](C)O)NC(=O)[C@H](CCN)NC(=O)[C@H](CCN)NC(=O)[C@H]([C@@H](C)O)NC(=O)[C@@H](Cc2ccccc2)NC(=O)[C@H](CCN)NC1=O)[C@@H](C)O [Compound 2] ({Heptanoyl(6-Me)}-[Dab]T[dDap][Dab][Dab][dF]T[Dab][Dab]T; lactam 4-C)	≤0.03 µg/mL
